- targetOrTestSystem: CGRP receptor (SK-N-MC cell membranes) (Homo sapiens, UniProt O60894+Q16602)
- Construct: endogenous in cells; host or cells: SK-N-MC cells (membrane homogenate)
- experimentNotes: CGRP Binding Assay ([125I]-CGRP radioligand binding, SK-N-MC homogenate)
- assaySetup: displacement of [125I]-CGRP, SK-N-MC homogenate; read-out: CGRP binding IC50
pIC50: −log10 of the molar value.
valueKind: pIC50

In the examples that follow, each entry is paired with its recorded pIC50.
1) CN(C)/C=C/CN1CCN(C(=O)C(Cc2ccc3[nH]ncc3c2)NC(=O)N2CCC(N3Cc4ccccc4NC3=O)CC2)CC1 (stereo not shown) [Example 40h] = < 6.00
2) COc1cc(C(=O)N[C@@H](CC(=O)N2CCC(N3Cc4ccccc4NC3=O)CC2)C(=O)N2CCC(N3CCCCC3)CC2)cc(OC)c1OC [Example 128] = 6.00 to 7.00
3) O=C(Nc1ccc(F)cc1)N[C@@H](CC(=O)N1CCC(N2Cc3ccccc3NC2=O)CC1)C(=O)N1CCC(N2CCCCC2)CC1 [Example 180] = 6.00 to 7.00
4) Cc1cccc(CN[C@@H](CC(=O)N2CCC(N3Cc4ccccc4NC3=O)CC2)C(=O)N2CCC(N3CCCCC3)CC2)c1 [Example 95] = 6.00 to 7.00
5) O=C(NC(Cc1ccc2[nH]ncc2c1)C(=O)N1CCC(N2Cc3ccccc3NC2=O)CC1)N1CCC(N2Cc3ccccc3NC2=O)CC1 (stereo not shown) [Example 37] = > 8.00

So, O=C(N[C@@H](CC(=O)N1CCC(N2Cc3ccccc3NC2=O)CC1)C(=O)N1CCC(N2CCCCC2)CC1)c1ccc(Cl)c(Cl)c1 [Example 111] ? Its pIC50 was 6.00 to 7.00

Field pIC50 (entry Cc1cc(CC(NC(=O)N2CCC3(CC2)N=C(c2ccccc2)NC3=O)C(=O)N2CCCCC2)cc2cn[nH]c12 (racemic) [Example 35] ) reads 7.00 to 8.00

The value of pIC50 measured for the molecule O=C(CC(Cc1ccc2[nH]ncc2c1)C(=O)N1CCC2(CC1)OCCO2)N1CCC(N2Cc3ccccc3NC2=O)CC1 (racemic) [Example 81] turned out to be 7.00 to 8.00

# pIC50 of O=C(Nc1cccc(C(F)(F)F)c1)N[C@@H](CC(=O)N1CCC(N2Cc3ccccc3NC2=O)CC1)C(=O)N1CCC(N2CCCCC2)CC1 [Example 153] = 6.00 to 7.00

Entry COc1cc(NC(=O)N[C@@H](CC(=O)N2CCC(N3Cc4ccccc4NC3=O)CC2)C(=O)N2CCC(N3CCCCC3)CC2)cc(OC)c1 [Example 165] — recorded pIC50 = 6.00 to 7.00

response.value for O=C(N[C@@H](CC(=O)N1CCC(N2Cc3ccccc3NC2=O)CC1)C(=O)N1CCC(N2CCCCC2)CC1)c1ccccc1 [Example 110] (field: pIC50) = 6.00 to 7.00

For reference, reported pIC50 for C#CCNC(=O)C(CC(=O)N1CCC(N2Cc3ccccc3NC2=O)CC1)Cc1cc(C)c2[nH]ncc2c1 (racemic) [Example 84] stands at 7.00 to 8.00

For O=C(Nc1cc(C(F)(F)F)ccc1Cl)N[C@@H](CC(=O)N1CCC(N2Cc3ccccc3NC2=O)CC1)C(=O)N1CCC(N2CCCCC2)CC1 [Example 167] the molecule record lists pIC50 as 6.00 to 7.00

Recorded pIC50 (molecule O=C(NC(Cc1ccc2[nH]ncc2c1)C(=O)N1CCN(C/C=C/c2ccccc2)CC1)N1CCC(N2Cc3ccccc3NC2=O)CC1 (stereo not shown) [Example 40j] ): < 6.00

molecule Cc1cc(CC(NC(=O)N2CCC3(CC2)N=C(c2ccccc2)NC3=O)C(=O)N(C)C)cc2cn[nH]c12 (racemic) [Example 36] , pIC50 observed: 7.00 to 8.00

pIC50 recorded for this molecule, O=C(Nc1cccc(Br)c1)N[C@@H](CC(=O)N1CCC(N2Cc3ccccc3NC2=O)CC1)C(=O)N1CCC(N2CCCCC2)CC1 [Example 176] , is 7.00 to 8.00

Short answer for CC(C)(C)OC(=O)n1ncc2cc(CC(CC(=O)N3CCC(N4Cc5ccccc5NC4=O)CC3)C(=O)N3CCC(N4CCCCC4)CC3)ccc21 (racemic) [Example 83] : pIC50 was 7.00 to 8.00

Sure, the documented pIC50 for COc1ccccc1NC(=O)N[C@@H](CC(=O)N1CCC(N2Cc3ccccc3NC2=O)CC1)C(=O)N1CCC(N2CCCCC2)CC1 [Example 149] is 7.00 to 8.00

# pIC50 of O=C(Nc1ccc(Cl)cc1C(F)(F)F)N[C@@H](CC(=O)N1CCC(N2Cc3ccccc3NC2=O)CC1)C(=O)N1CCC(N2CCCCC2)CC1 [Example 188] = 6.00 to 7.00

Looking up O=C(NC(Cn1ccc(O)cc1=O)C(=O)N1CCC(N2CCCCC2)CC1)N1CCC(N2Cc3ccccc3NC2=O)CC1 (racemic) [Example 52] , I see its pIC50 listed as < 6.00

Record Cc1cc(CC(CC(=O)N2CCC3(CC2)OC(=O)Nc2ccccc23)C(=O)N2CCC(N3CCCCC3)CC2)cc2cn[nH]c12 (racemic) [Example 68] , field pIC50: > 8.00

Lab note: measured pIC50 of O=C(N[C@H](Cc1ccc2nn[nH]c2c1)C(=O)N1CCC(N2CCCCC2)CC1)N1CCC(N2Cc3ccccc3NC2=O)CC1 [Example 49] was > 8.00

Consider O=C(Nc1cccc(Cl)c1Cl)N[C@@H](CC(=O)N1CCC(N2Cc3ccccc3NC2=O)CC1)C(=O)N1CCC(N2CCCCC2)CC1 [Example 148] . Its measured pIC50 is 7.00 to 8.00

molecule O=C(Nc1ccc(F)c(F)c1F)N[C@@H](CC(=O)N1CCC(N2Cc3ccccc3NC2=O)CC1)C(=O)N1CCC(N2CCCCC2)CC1 [Example 168] , pIC50 observed: 6.00 to 7.00

The recorded pIC50 for COc1cccc(NC(=O)N[C@@H](CC(=O)N2CCC(N3Cc4ccccc4NC3=O)CC2)C(=O)N2CCC(N3CCCCC3)CC2)c1 [Example 150] is 7.00 to 8.00

====

The entries below come with measured pIC50 values attached.
- targetOrTestSystem: human CGRP receptor (SK-N-MC cells) (Homo sapiens, UniProt O60894+Q16602)
- Construct: SK-N-MC cells that endogenously express the human CGRP receptor; endogenous in cells; host or cells: SK-N-MC cells
- Sequence (Q16602 23-461): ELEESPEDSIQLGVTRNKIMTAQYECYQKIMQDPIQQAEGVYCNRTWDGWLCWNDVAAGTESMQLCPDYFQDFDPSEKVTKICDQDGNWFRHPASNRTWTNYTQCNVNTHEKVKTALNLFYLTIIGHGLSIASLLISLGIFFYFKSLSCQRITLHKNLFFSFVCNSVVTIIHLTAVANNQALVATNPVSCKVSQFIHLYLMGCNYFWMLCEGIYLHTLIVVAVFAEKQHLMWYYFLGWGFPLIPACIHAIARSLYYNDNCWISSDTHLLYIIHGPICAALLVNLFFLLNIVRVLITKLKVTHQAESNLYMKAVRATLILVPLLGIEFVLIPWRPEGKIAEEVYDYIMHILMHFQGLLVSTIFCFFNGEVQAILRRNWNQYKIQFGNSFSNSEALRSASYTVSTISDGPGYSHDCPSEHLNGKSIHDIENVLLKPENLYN
- Sequence (O60894 27-148): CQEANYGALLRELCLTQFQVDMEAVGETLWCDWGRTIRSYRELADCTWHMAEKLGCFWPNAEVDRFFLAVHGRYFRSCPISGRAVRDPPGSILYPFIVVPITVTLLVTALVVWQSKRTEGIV
- experimentNotes: Cyclic AMP Assay, functional antagonism of CGRP-induced cyclic AMP formation
- Type: cell-based
pIC50: −log10 of the molar value.

1. O=C(NC(Cc1ccc2[nH]ncc2c1)C(=O)N1CCC2(CC1)OCCO2)N1CCC(n2c(=O)[nH]c3ccccc32)CC1 (racemic) [Example 10] = 7.00 to 8.00
2. Cc1cc(CC(CC(=O)N2CCC(N3Cc4ccccc4NC3=O)CC2)C(=O)N2CCC3(CC2)OCCO3)cc2cn[nH]c12 (racemic) [Example 70] = > 8.00

We now examine a further compound.
Short answer for O=C(NC(Cc1ccc2[nH]ncc2c1)C(=O)N1CCC2(CC1)OCCO2)N1CCC(N2Cc3ccccc3NC2=O)CC1 (racemic) [Example 11] : pIC50 was 7.00 to 8.00

====

- targetOrTestSystem: human CGRP receptor (SK-N-MC cells) (Homo sapiens, UniProt O60894+Q16602)
- Construct: SK-N-MC cells that endogenously express the human CGRP receptor; endogenous in cells; host or cells: SK-N-MC cells
- experimentNotes: Schild analysis of CGRP stimulated cAMP production
- Assay type: cell-based
- assaySetup: Schild plot slope
valueKind: slope
The reply should be a number, written without any unit.

Example results:
1. Cc1cc(CC(NC(=O)N2CCC(N3Cc4ccccc4NC3=O)CC2)C(=O)N2CCCCC2)cc2cn[nH]c12 (racemic) [Example 17] = 0.92
2. Cc1cc(CC(CC(=O)N2CCC(N3Cc4ccccc4NC3=O)CC2)C(=O)N2CCC3(CC2)OCCO3)cc2cn[nH]c12 (racemic) [Example 70] = 0.71

// next entry
The molecule listed as O=C(N[C@H](Cc1ccc2[nH]ncc2c1)C(=O)N1CCC(N2CCCCC2)CC1)N1CCC(N2Cc3ccccc3NC2=O)CC1 [Example 2] has a reported slope of 0.94

====

- targetOrTestSystem: CGRP receptor (SK-N-MC cell membranes) (Homo sapiens, UniProt O60894+Q16602)
- Construct: endogenous in cells; host or cells: SK-N-MC cells (membrane homogenate)
- experimentNotes: CGRP Binding Assay ([125I]-CGRP radioligand binding, SK-N-MC homogenate)
- assaySetup: displacement of [125I]-CGRP, SK-N-MC homogenate; read-out: CGRP binding IC50
Reported IC50 values for the following molecules.

// solved cases for IC50 follow
1) Cc1cc(CC(CC(=O)N2CCC(N3Cc4ccccc4NC3=O)CC2)C(=O)N2CCOCC2)cc2cn[nH]c12 (racemic) = < 10 nM
2) O=C1Cc2cc(C[C@@H](NC(=O)N3CCC(N4Cc5ccccc5NC4=O)CC3)C(=O)N3CCC(N4CCCCC4)CC3)ccc2N1 = < 10 nM
3) CN1CCN(C(=O)C(Cc2ccc3[nH]ncc3c2)NC(=O)N2CCC(N3Cc4ccccc4NC3=O)CC2)CC1 (stereo not shown) [Example 40k] = > 1000 nM
4) Cc1cc(CC(NC(=O)N2CCC(N3Cc4ccccc4NC3=O)CC2)C(=O)N2CCCCC2)cc2cn[nH]c12 (racemic) = < 10 nM
5) O=C(N[C@@H](CC(=O)N1CCC(N2Cc3ccccc3NC2=O)CC1)C(=O)N1CCC(N2CCCCC2)CC1)c1cccc(Cl)c1Cl = 10 to 100 nM
6) Cc1nc(N[C@@H](CC(=O)N2CCC(N3Cc4ccccc4NC3=O)CC2)C(=O)N2CCC(N3CCCCC3)CC2)nc(N)c1[N+](=O)[O-] = 10 to 100 nM
7) O=C(NCCc1cccs1)N[C@@H](CC(=O)N1CCC(N2Cc3ccccc3NC2=O)CC1)C(=O)N1CCC(N2CCCCC2)CC1 = 100 to 1000 nM
8) O=C(NC(Cc1ccc2[nH]ncc2c1)C(=O)N1CCN(Cc2ccco2)CC1)N1CCC(N2Cc3ccccc3NC2=O)CC1 (stereo not shown) [Example 40e] = > 1000 nM
9) O=C(C[C@H](NC(=O)n1c2ccccc2c2ccccc21)C(=O)N1CCC(N2CCCCC2)CC1)N1CCC(N2Cc3ccccc3NC2=O)CC1 = 100 to 1000 nM

For reference, reported IC50 for Cc1cc(CC(NC(=O)N2CCC(N3Cc4ccccc4NC3=O)CC2)C(=O)N2CCC(N3CCCCC3)CC2)cc2cn[nH]c12 (racemic) stands at < 10 nM
